- System: Malme-3M
- Method notes: Cytotoxicity against human MALME-3M cells at 10 uM after 48 hrs by SRB assay
- Type: functional
- Run conditions: read-out: GI
Task for the reader: assign each of the following molecules its reported inhibition of growth at 10 µM.
Only the number, expressed in %, is required.

Give inhibition of growth at 10 µM for `Cc1nc2cc(Nc3nc(Nc4ccc(F)cc4)nc(-c4cccs4)n3)ccc2n1Cc1ccccc1`
22.4

Give inhibition of growth at 10 µM for `Cc1nc2cc(Nc3nc(NCCN)nc(Nc4ccc(F)cc4)n3)ccc2n1Cc1ccccc1`
6.46

Give inhibition of growth at 10 µM for `Cc1nc2cc(Nc3nc(Nc4ccc(F)cc4)nc(Nc4ncccn4)n3)ccc2n1Cc1ccccc1`
7.94

Give inhibition of growth at 10 µM for `Cc1nc2cc(Nc3nc(Nc4ccc(O)cc4)nc(Nc4ccc(F)cc4)n3)ccc2n1Cc1ccccc1`
0.89

Give inhibition of growth at 10 µM for `COc1ccc(-c2nc(Nc3ccc(F)cc3)nc(Nc3ccc4c(c3)nc(C)n4Cc3ccccc3)n2)cc1`
47.2

Give inhibition of growth at 10 µM for `Cc1nc2cc(Nc3nc(Nc4ccc(F)cc4)nc(-c4ccc(Cl)cc4)n3)ccc2n1Cc1ccccc1`
27.5

---

- System: MDA-MB-468
- Method notes: Cytotoxicity against human MDA-MB-468 cells at 10 uM after 48 hrs by SRB assay
- Type: functional
- Run conditions: MDA-MB-468, 48 h, read-out: GI
Measurement name: inhibition of growth at 10 µM (%)
Only the number, expressed in %, is required.

Give inhibition of growth at 10 µM for `Cc1nc2ccc(Nc3nc(NCCN4CCOCC4)nc(Nc4ccc(F)cc4)n3)cc2n1Cc1ccccc1`
86

Give inhibition of growth at 10 µM for `Cc1nc2cc(Nc3nc(NCCO)nc(Nc4ccc(F)cc4)n3)ccc2n1Cc1ccccc1`
0.84

Give inhibition of growth at 10 µM for `Cc1nc2cc(Nc3nc(Nc4ccc(F)cc4)nc(Nc4ccc(F)cc4)n3)ccc2n1Cc1ccccc1`
9.45

Give inhibition of growth at 10 µM for `Cc1nc2cc(Nc3nc(Nc4ccc(F)cc4)nc(-c4ccc(Cl)cc4)n3)ccc2n1Cc1ccccc1`
25.7

Give inhibition of growth at 10 µM for `Cc1nc2cc(Nc3nc(Nc4ccc(F)cc4)nc(-c4ccccc4)n3)ccc2n1Cc1ccccc1`
27.6

Give inhibition of growth at 10 µM for `Cc1nc2ccc(Nc3nc(Nc4ccc(F)cc4)nc(N4CCCCC4)n3)cc2n1Cc1ccccc1`
17.2

Give inhibition of growth at 10 µM for `COc1ccc(-c2nc(Nc3ccc(F)cc3)nc(Nc3ccc4c(c3)nc(C)n4Cc3ccccc3)n2)cc1`
71.6

Give inhibition of growth at 10 µM for `Cc1nc2ccc(Nc3nc(NCCN)nc(Nc4ccc(F)cc4)n3)cc2n1Cc1ccccc1`
49.5

---

- System: SK-MEL-28
- Method notes: Cytotoxicity against human SK-MEL-28 cells at 10 uM after 48 hrs by SRB assay
- Assay type: functional
Calls of active or inactive are those of the source. No cut-off for these calls is given here.
The categories you may choose from are active, inactive

GET /call?item= `Cc1nc2ccc(Nc3nc(NCCN4CCOCC4)nc(Nc4ccc(F)cc4)n3)cc2n1Cc1ccccc1` returns the recorded outcome of this test.
active

GET /call?item= `Cc1nc2cc(Nc3nc(Nc4ccc(F)cc4)nc(N4CCCC4)n3)ccc2n1Cc1ccccc1` returns the recorded outcome of this test.
active

GET /call?item= `Cc1nc2cc(Nc3nc(Cl)nc(Nc4ccc(F)cc4)n3)ccc2n1Cc1ccccc1` returns the recorded outcome of this test.
inactive

GET /call?item= `Cc1nc2cc(Nc3nc(NCCN)nc(Nc4ccc(F)cc4)n3)ccc2n1Cc1ccccc1` returns the recorded outcome of this test.
inactive

GET /call?item= `Cc1nc2cc(Nc3nc(Nc4ccc(F)cc4)nc(Nc4ncccn4)n3)ccc2n1Cc1ccccc1` returns the recorded outcome of this test.
inactive

The measurements presented in this section are drawn from ChEMBL document CHEMBL3745645.
